Hello, the source for this data is PubChem BioAssay (Tox21), in case you need it.

Study system: Acetylcholinesterase (Homo sapiens) (UniProt P22303)
Sequence (P22303 whole entry, looked up): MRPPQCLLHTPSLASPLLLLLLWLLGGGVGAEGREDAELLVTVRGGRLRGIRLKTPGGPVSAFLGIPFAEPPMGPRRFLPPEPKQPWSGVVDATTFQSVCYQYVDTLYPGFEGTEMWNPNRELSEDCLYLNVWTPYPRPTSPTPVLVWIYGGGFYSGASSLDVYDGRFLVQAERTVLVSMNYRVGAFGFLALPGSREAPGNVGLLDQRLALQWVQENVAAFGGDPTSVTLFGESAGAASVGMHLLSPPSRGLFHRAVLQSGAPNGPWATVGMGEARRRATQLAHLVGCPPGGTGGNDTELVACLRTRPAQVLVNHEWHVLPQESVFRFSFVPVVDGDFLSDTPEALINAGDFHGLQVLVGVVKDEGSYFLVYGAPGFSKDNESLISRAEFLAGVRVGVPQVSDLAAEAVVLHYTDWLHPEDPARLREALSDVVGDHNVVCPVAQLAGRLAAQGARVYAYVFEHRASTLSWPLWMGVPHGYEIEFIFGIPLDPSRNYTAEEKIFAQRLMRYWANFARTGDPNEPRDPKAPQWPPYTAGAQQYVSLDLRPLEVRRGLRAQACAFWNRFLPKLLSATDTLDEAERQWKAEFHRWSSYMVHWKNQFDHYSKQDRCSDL
Protocol details: Acetylcholinesterase (AChE) small molecule antagonists: colormetric cell-based qHTS assay (AID 1347395); note: nearly all actives have a fitted effect of over 30% in size
Stated conditions: SH-SY5Y cells AChE activity, colorimetric (Ellman); series mostly up to 115 µM
Excerpt: National Center for Advancing Translational Sciences [NCATS] Division of Preclinical Innovation [DPI] U.S. Environmental Protection Agency [EPA] National Institutes of Environmental Health Sciences [NIEHS] National Toxicology Program [NTP] U.S. Food and Drug Administration [FDA] Acetylcholinesterase (AChE) is the primary cholinesterase in the body that hydrolyzes a key neurotransmitter, acetylcholine. Inhibition of AChE activity can lead to neurotoxicity. […]
Records with an inconclusive call do not appear. The source made the active and inactive calls. Calls come from the whole dose curve.
Test readout: activity, negative = inhibition

# example entries with known answers
1) COC(=O)CCCC(=O)OC ... inactive
2) CCCCCCCCCCCCCC(=O)OCC ... inactive
3) O=C(NCC1CN(c2ccc(N3CCOCC3=O)cc2)C(=O)O1)c1ccc(Cl)s1 (stereo not drawn) ... inactive
4) CN(C)c1cccc(O)c1 ... inactive
5) NS(=O)(=O)c1ccc(Cl)c(S(N)(=O)=O)c1 ... inactive

Query: I have this molecule here, COc1ccc(CN(CCN(C)C)c2ccccn2)cc1 , and I need its recorded activity, negative = inhibition.
Response: inactive

Query: I have this molecule here, CCN(CCC#N)c1ccc(N=Nc2ccc([N+](=O)[O-])cc2)cc1 , and I need its recorded activity, negative = inhibition.
Response: inactive

Query: I have this molecule here, O=S(=O)(O)CO , and I need its recorded activity, negative = inhibition.
Response: inactive

Query: I have this molecule here, CC(=O)Oc1ccc(C2(c3ccc(OC(C)=O)cc3)Oc3ccccc3NC2=O)cc1 , and I need its recorded activity, negative = inhibition.
Response: inactive

Query: I have this molecule here, Clc1cccc(Cl)n1 , and I need its recorded activity, negative = inhibition.
Response: inactive

Query: I have this molecule here, Cc1ccccc1C(N)=O , and I need its recorded activity, negative = inhibition.
Response: inactive

Query: I have this molecule here, Cc1cccc(Nc2cc(Cl)nc(SCC(=O)O)n2)c1C , and I need its recorded activity, negative = inhibition.
Response: inactive

Query: I have this molecule here, O=c1[nH]cccc1O , and I need its recorded activity, negative = inhibition.
Response: inactive

Query: I have this molecule here, CCCCCCC=O , and I need its recorded activity, negative = inhibition.
Response: inactive

Query: I have this molecule here, Cc1c(C)c2c(c(C)c1O)CCC(C)(COc1ccc(CC3SC(=O)NC3=O)cc1)O2 (stereo not drawn) , and I need its recorded activity, negative = inhibition.
Response: inactive

Query: I have this molecule here, COc1cc(/C=C/C(=O)CC(=O)/C=C/c2ccc(O)c(OC)c2)ccc1O , and I need its recorded activity, negative = inhibition.
Response: inactive

Query: I have this molecule here, Nc1ccn([C@H]2CS[C@@H](CO)O2)c(=O)n1 , and I need its recorded activity, negative = inhibition.
Response: inactive

Query: I have this molecule here, CC(=O)OCCC1CCCCC1 , and I need its recorded activity, negative = inhibition.
Response: inactive

Query: I have this molecule here, CCOC(=O)NCCOc1ccc(Oc2ccccc2)cc1 , and I need its recorded activity, negative = inhibition.
Response: inactive

Query: I have this molecule here, O=C(Cl)c1ccc(C(=O)Cl)cc1 , and I need its recorded activity, negative = inhibition.
Response: inactive

Query: I have this molecule here, OCCCCl , and I need its recorded activity, negative = inhibition.
Response: inactive

Query: I have this molecule here, COc1ccc(Nc2ccc(OC)cc2)cc1 , and I need its recorded activity, negative = inhibition.
Response: inactive

Query: I have this molecule here, O=C=Nc1ccc(Cc2ccc(N=C=O)cc2)cc1 , and I need its recorded activity, negative = inhibition.
Response: inactive

Query: I have this molecule here, CC1=C(/C=C/C(C)=C/C=C/C(C)=C/CO)C(C)(C)CCC1 , and I need its recorded activity, negative = inhibition.
Response: inactive

Query: I have this molecule here, O=C1c2ccccc2C(=O)C1c1nc2ccccc2c(Br)c1O , and I need its recorded activity, negative = inhibition.
Response: inactive
